# Assay: NCI Yeast Anticancer Drug Screen. Data for the rad14 strain (AID 159);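 also: 0% = growth of vehicle-treated control cultures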
# Run Conditions: S. cerevisiae rad14 strain growth inhibition; at 3.7 µM; active compounds read high
Compounds without any hit were thinned out: in the full panel of roughly 79,000, 15% have a hit.
Property Measured: growth inhibition (%)

{"columns": ["Compound", "Recorded Result"],
 "data": [
  ["CC(=O)N1C(=O)/C(=C\\C(=O)c2ccc(Cl)cc2)c2ccccc21", -10],
  ["CN(CC(=O)O)c1ccc(/C=C/c2ccnc3ccccc23)cc1", -5],
  ["S=c1[nH]c2c(Cl)c(Cl)c(Cl)c(Cl)c2[nH]1", 4],
  ["CCCCCCCCN1C(=O)c2ccccc2C1=O", 0],
  ["N#C/C(=C/c1c(Cl)cccc1Cl)C(N)=O", -15],
  ["On1cnc(=S)c2[nH]cnc21", -26],
  ["BrCc1ccccc1C(c1ccccc1)c1ccccc1", 64],
  ["C=C(CCCO)[C@@H]1CC[C@@](C)(O)[C@H]1C", -43],
  ["CC(=O)[C@]1(O)Cc2c(O)c3c(c(O)c2[C@@H](OC2CC(N)C(O)C(C)O2)C1)C(=O)c1c(OCc2ccccc2)cccc1C3=O (some centres undefined)", 18],
  ["CC1=CC2C(C(C)C)CC1C1C(=O)OC(=O)C21 (centres undefined)", 4],
  ["O=C(CNS(=O)(=O)Cc1ccccc1)NNc1ccccc1", 3],
  ["CCN(CC)CCNC(=O)c1nn(-c2ccc(Cl)cc2)c2c1CCc1cc(OC)ccc1-2", 2],
  ["CC(=O)CC(=O)/C=C/c1cccs1", -9],
  ["CO[C@@]12[C@H](COC(N)=O)C3=C(C(=O)C(C)=C(N)C3=O)N1C[C@@H]1N[C@@H]12", 17],
  ["O=C(CCc1ccccc1)ON1C(=S)C(c2ccccc2)(c2ccccc2)N=C1Sc1ccccc1", 20],
  ["CC1(C)C(C=O)=CCC1CC(N)=O (centres undefined)", -2],
  ["O=c1[nH]c2ccccc2c2nc3ccccc3n12", -43],
  ["COCCCN(Cc1cc(OC)c(OC)c(OC)c1)C(=S)Nc1cccc(Cl)c1", -7],
  ["Clc1cc(Cc2ccc(N=C/C=C/c3ccccc3)c(Cl)c2)ccc1N=C/C=C\\c1ccccc1", -20]
]}

Where these numbers come from: PubChem BioAssay (NCI)
